All figures here come from patent US5843889A.

Tested on: Staphylococcus aureus SA1199A
assay.text: MIC, standard broth micro-dilution assay
Format: cell-based
endpoint.label: MIC

Task: I would be grateful if you could share the reported MIC for CNC(CC(C)C)C(=O)NC1C(=O)NC(CC(N)=O)C(=O)NC2C(=O)NC3C(=O)NC(C(=O)NC(C(=O)O)c4cc(O)cc(O)c4-c4cc3ccc4O)C(OC3CC(C)(N)C(O)C(C)O3)c3ccc(c(Cl)c3)Oc3cc2cc(c3OC2OC(CO)C(O)C(O)C2OC2CC(C)(NCc3ccc(C(O)c4ccccc4)cc3)C(O)C(C)O2)Oc2ccc(cc2Cl)C1O (stereo not drawn) [Compound 109, 4-[alpha-hydroxybenzyl]benzyl] .
Result: ≤ 0.06 µg/mL

====

Tested on: Lactobacillus confusus
assay.text: MIC, agar dilution on brain-heart infusion agar
Format: cell-based
MIC less than 20 µg/mL is yes; MIC greater than or equal to 20 µg/mL is no.

| compound | category.label |
| --- | --- |
| CNC(CC(C)C)C(=O)NC1C(=O)NC(CC(N)=O)C(=O)NC2C(=O)NC3C(=O)NC(C(=O)NC(C(=O)O)c4cc(O)cc(O)c4-c4cc3ccc4O)C(OC3CC(C)(N)C(O)C(C)O3)c3ccc(c(Cl)c3)Oc3cc2cc(c3OC2OC(CO)C(O)C(O)C2OC2CC(C)(NCc3ccc(SC)cc3)C(O)C(C)O2)Oc2ccc(cc2Cl)C1O (stereo not drawn) | no |
| CNC(CC(C)C)C(=O)NC1C(=O)NC(CC(N)=O)C(=O)NC2C(=O)NC3C(=O)NC(C(=O)NC(C(=O)O)c4cc(O)cc(O)c4-c4cc3ccc4O)C(OC3CC(C)(N)C(O)C(C)O3)c3ccc(c(Cl)c3)Oc3cc2cc(c3OC2OC(CO)C(O)C(O)C2OC2CC(C)(NCc3ccc4c(c3)Cc3ccccc3-4)C(O)C(C)O2)Oc2ccc(cc2Cl)C1O (stereo not drawn) | yes |

Task: Take the compound CN[C@H](CC(C)C)C(=O)N[C@H]1C(=O)N[C@@H](CC(N)=O)C(=O)N[C@H]2C(=O)N[C@H]3C(=O)N[C@H](C(=O)N[C@H](C(=O)O)c4cc(O)cc(O)c4-c4cc3ccc4O)[C@H](O)c3ccc(c(Cl)c3)Oc3cc2cc(c3O[C@@H]2O[C@H](CO)[C@@H](O)[C@H](O)[C@H]2O[C@H]2C[C@](C)(N)[C@H](O)[C@H](C)O2)Oc2ccc(cc2Cl)[C@H]1O [vancomycin, reference compound] and say whether its MIC is less than 20 µg/mL.
Result: no

====

Tested on: Lactobacillus confusus
assay.text: MIC, agar dilution on brain-heart infusion agar
Assay type: cell-based
In this section we review reported MIC values for a set of compounds.
Quick note: give the figure in µg/mL, leave out the unit.

Past entries and their recorded results:
| compound | unit.abbrev | MIC |
| --- | --- | --- |
| CNC(CC(C)C)C(=O)NC1C(=O)NC(CC(N)=O)C(=O)NC2C(=O)NC3C(=O)NC(C(=O)NC(C(=O)O)c4cc(O)cc(O)c4-c4cc3ccc4O)C(OC3CC(C)(N)C(O)C(C)O3)c3ccc(c(Cl)c3)Oc3cc2cc(c3OC2OC(CO)C(O)C(O)C2OC2CC(C)(NCc3ccc(-c4ccccc4)cc3)C(O)C(C)O2)Oc2ccc(cc2Cl)C1O (stereo not drawn) [Compound 2, p-phenylbenzyl.cndot.A82846B] | µg/mL | 16 |
| CNC(CC(C)C)C(=O)NC1C(=O)NC(CC(N)=O)C(=O)NC2C(=O)NC3C(=O)NC(C(=O)NC(C(=O)O)c4cc(O)cc(O)c4-c4cc3ccc4O)C(OC3CC(C)(N)C(O)C(C)O3)c3ccc(c(Cl)c3)Oc3cc2cc(c3OC2OC(CO)C(O)C(O)C2OC2CC(C)(NCc3ccc(C=Cc4ccccc4)cc3)C(O)C(C)O2)Oc2ccc(cc2Cl)C1O (stereo not drawn) | µg/mL | 8 |

Here's the next entry for you.
Task: Tell me reported MIC for CNC(CC(C)C)C(=O)NC1C(=O)NC(CC(N)=O)C(=O)NC2C(=O)NC3C(=O)NC(C(=O)NC(C(=O)O)c4cc(O)cc(O)c4-c4cc3ccc4O)C(OC3CC(C)(N)C(O)C(C)O3)c3ccc(c(Cl)c3)Oc3cc2cc(c3OC2OC(CO)C(O)C(O)C2OC2CC(C)(NCc3cccc4c3oc3ccccc34)C(O)C(C)O2)Oc2ccc(cc2Cl)C1O (stereo not drawn) [Compound 39, 4-[1-oxa]fluorenylmethyl] , tested with Lactobacillus confusus.
Result: 32
